A short record of CC50 observed with 293T human embryonic kidney cells follows.
quantity-measured: CC50

[[record]]
molecule = "CC(C)C[C@H](NC(=O)OCc1ccccc1)C(=O)N[C@@H](CC1CCNC1=O)C(O)S(=O)(=O)O (stereo partly shown)"
endpoint_result = "> 100 µM"

[[record]]
molecule = "CCCC(NC(=O)C(CC(C)C)NC(=O)OCc1ccccc1)C(=O)C(=O)NCc1ccccn1 (stereo not shown)"
endpoint_result = "> 100 µM"

[[record]]
molecule = "O=C(Oc1cncc(Cl)c1)c1cccs1"
endpoint_result = "> 100 µM"

[[record]]
molecule = "Cn1nc(-c2ccc(C(F)(F)F)cc2)nc2c(=O)n(C)c(=O)nc1-2"
endpoint_result = "29 µM"


###

The compounds listed here are annotated with their CC50.
Test system: 293T human embryonic kidney cells
Residues, ends and D or L forms follow the SMILES beside them.
quantity-measured: CC50 (µM)

[[record]]
compound = "O.O=C(OC[C@H]1O[C@@H](OC(=O)c2cc(O)c(O)c(O)c2)[C@H](OC(=O)c2cc(O)c(O)c(O)c2)[C@@H](OC(=O)c2cc(O)c(O)c(O)c2)[C@@H]1OC(=O)c1cc(O)c(O)c(O)c1)c1cc(O)c(O)c(O)c1 [penta-O-galloyl-beta-D-glucose hydrate]"
measured_target = "293T human embryonic kidney cells"
quantity_measured = "CC50"
qualifying_sign = "="
endpoint_result = 30.4

[[record]]
compound = "C=C[C@@H]1C[C@]1(NC(=O)[C@@H]1C[C@@H]2CN1C(=O)[C@H](C(C)(C)C)NC(=O)O[C@@H]1C[C@H]1CCCCCc1nc3ccc(OC)cc3nc1O2)C(=O)NS(=O)(=O)C1CC1 [Grazoprevir]"
measured_target = "293T human embryonic kidney cells"
quantity_measured = "CC50"
qualifying_sign = "="
endpoint_result = 57.4

[[record]]
compound = "CSCC[C@@H](C=O)NC(=O)[C@H](CC(C)C)NC(=O)[C@H](CC(C)C)NC(C)=O [Calpain Inhibitor II] (Ac-Leu-Leu-Met-aldehyde)"
measured_target = "293T human embryonic kidney cells"
quantity_measured = "CC50"
qualifying_sign = ">"
endpoint_result = 100


###

Assay: in vitro
Details: human
quantity-measured: CC50

[[record]]
smiles_str = "CC(C)(C)NC(=O)[C@@H]1CN(Cc2cccnc2)CCN1C[C@@H](O)C[C@@H](Cc1ccccc1)C(=O)N[C@H]1c2ccccc2C[C@H]1O"
endpoint_result = "> 100 µM"

[[record]]
smiles_str = "Cc1ccc(C(=O)Nc2ccc(S(=O)(=O)O)c3cc(S(=O)(=O)O)cc(S(=O)(=O)O)c23)cc1NC(=O)c1cccc(NC(=O)Nc2cccc(C(=O)Nc3cc(C(=O)Nc4ccc(S(=O)(=O)O)c5cc(S(=O)(=O)O)cc(S(=O)(=O)O)c45)ccc3C)c2)c1"
endpoint_result = "> 100 µM"

[[record]]
smiles_str = "O=c1cc(-c2ccccc2)oc2cc(O)c(O)c(O)c12"
endpoint_result = "> 100 µM"

